- tgt: recombinant human TFPI (tissue factor pathway inhibitor) (human, UniProt P10646 29-304)
- measurement_description: cell-based or functional assay
measured_parameter: FXa assay OD, 10 nM Ab, 10 nM TFPI
Lab note: jot the number down without any unit.

Name the recorded FXa assay OD, 10 nM Ab, 10 nM TFPI for clone 3120 (antibody, V domains shown) VH: EVQLVESGGGLVKPGGSLRLSCAASGFTFSSYAMNWVRQAPGKGLEWVSTITTGGSYTYYADSVEGRFTISRDNAKNSLYLQMNSLRAEDTAVYYCARQDGYFLMDYWGQGTLVTVSS VL: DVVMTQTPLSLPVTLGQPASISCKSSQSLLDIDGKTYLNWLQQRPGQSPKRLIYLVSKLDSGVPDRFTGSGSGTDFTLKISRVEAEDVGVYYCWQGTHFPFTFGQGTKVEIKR . 0.258
